B1: EHEE_rd4_0726 (parent)
chain: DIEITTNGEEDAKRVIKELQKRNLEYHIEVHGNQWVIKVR

- Variants of: B1
- Method: folding stability dG (cDNA display proteolysis); higher = more stable
- Condition description: PBS, room temperature
Experimental readout: folding stability dG (kJ/mol)
Hi! Could you send only the number? It should be in kJ/mol, unit omitted.

**Query** Given `L19C` , state its recorded folding stability dG.
**Result** 6.64

**Query** Given `V36R` , state its recorded folding stability dG.
**Result** 7.12

**Query** Given `V15W` , state its recorded folding stability dG.
**Result** 10.1

**Query** Given `I4W` , state its recorded folding stability dG.
**Result** 8.32

**Query** Given `E9R` , state its recorded folding stability dG.
**Result** 9.15

**Query** Given `L24K` , state its recorded folding stability dG.
**Result** 6.99

**Query** Given `R14S` , state its recorded folding stability dG.
**Result** 7.6

**Query** Given `I16S` , state its recorded folding stability dG.
**Result** 2.95

**Query** Given `W35Q` , state its recorded folding stability dG.
**Result** 2.14

**Query** Given `R14G` , state its recorded folding stability dG.
**Result** 6.31

**Query** Given `D11I` , state its recorded folding stability dG.
**Result** 8.49

**Query** Given `D11L` , state its recorded folding stability dG.
**Result** 8.87

**Query** Given `T5K` , state its recorded folding stability dG.
**Result** 9.7

**Query** Given `E10T` , state its recorded folding stability dG.
**Result** 8.07

**Query** Given `V30P` , state its recorded folding stability dG.
**Result** 3.62

**Query** Given `W35L` , state its recorded folding stability dG.
**Result** 6.41

**Query** Given `K17H` , state its recorded folding stability dG.
**Result** 9.47

**Query** Given `I4E` , state its recorded folding stability dG.
**Result** 0.0711

**Query** Given `R22K` , state its recorded folding stability dG.
**Result** 9.08

**Query** Given `H27K` , state its recorded folding stability dG.
**Result** 10.3

**Query** Given `E3H` , state its recorded folding stability dG.
**Result** 9.65

**Query** Given `V15Q` , state its recorded folding stability dG.
**Result** 3.64

**Query** Given `G8S` , state its recorded folding stability dG.
**Result** 13.7

**Query** Given `E29I` , state its recorded folding stability dG.
**Result** 9.69

**Query** Given `K21W` , state its recorded folding stability dG.
**Result** 8.55

**Query** Given `E18K` , state its recorded folding stability dG.
**Result** 7.58

**Query** Given `N7G` , state its recorded folding stability dG.
**Result** 7.45

**Query** Given `V36Q` , state its recorded folding stability dG.
**Result** 4.09

**Query** Given `D11H` , state its recorded folding stability dG.
**Result** 10.6

**Query** Given `K38W` , state its recorded folding stability dG.
**Result** 9.18

**Query** Given `L19T` , state its recorded folding stability dG.
**Result** -1.4

**Query** Given `K38N` , state its recorded folding stability dG.
**Result** 5.38

**Query** Given `E25Q` , state its recorded folding stability dG.
**Result** 10.9
